# RUN_DESCRIPTION: chemical genetic growth profiling, strain panel (AID 1159580);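 further: tested at 20 µM; growth read once vehicle control cultures reached saturation at 30 °C; lower values mean less growth of the strain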
# MEASUREMENT_SETUP: S. cerevisiae deletion strains, growth OD, locus YDR297W, strain sur2
About 2,000 (36%) of roughly 5,500 compounds were called active. Roughly 18% stayed inconclusive and do not appear here. No stated cut-off is given here; in the data, active means normalized growth mostly below about 0.91 (no sharp cut-off); inconclusive means no clear call, values can overlap the other calls; inactive means mostly above about 0.92. The list shows a part of the results.
Allowed answers: T (active), F (inactive)

Example cases with answers are listed next.
* CCCCN(CCCC)CCCOC(=O)c1ccc(N)cc1 | F
* CCCOc1ccc(C(=O)OCCN(CC)CC)cc1N | F

What did the test return for O=C(O)CN1C(=O)c2cccc3cccc(c23)C1=O ?
F

What did the test return for CCCCCCOc1ccccc1C(N)=O ?
T

What did the test return for Cc1cc(-c2ccccc2)nnc1NCCN1CCOCC1 ?
F
